Property: pIC50; scope: individual compounds
study target: TEC (Homo sapiens)
Sequence (P42680 whole entry): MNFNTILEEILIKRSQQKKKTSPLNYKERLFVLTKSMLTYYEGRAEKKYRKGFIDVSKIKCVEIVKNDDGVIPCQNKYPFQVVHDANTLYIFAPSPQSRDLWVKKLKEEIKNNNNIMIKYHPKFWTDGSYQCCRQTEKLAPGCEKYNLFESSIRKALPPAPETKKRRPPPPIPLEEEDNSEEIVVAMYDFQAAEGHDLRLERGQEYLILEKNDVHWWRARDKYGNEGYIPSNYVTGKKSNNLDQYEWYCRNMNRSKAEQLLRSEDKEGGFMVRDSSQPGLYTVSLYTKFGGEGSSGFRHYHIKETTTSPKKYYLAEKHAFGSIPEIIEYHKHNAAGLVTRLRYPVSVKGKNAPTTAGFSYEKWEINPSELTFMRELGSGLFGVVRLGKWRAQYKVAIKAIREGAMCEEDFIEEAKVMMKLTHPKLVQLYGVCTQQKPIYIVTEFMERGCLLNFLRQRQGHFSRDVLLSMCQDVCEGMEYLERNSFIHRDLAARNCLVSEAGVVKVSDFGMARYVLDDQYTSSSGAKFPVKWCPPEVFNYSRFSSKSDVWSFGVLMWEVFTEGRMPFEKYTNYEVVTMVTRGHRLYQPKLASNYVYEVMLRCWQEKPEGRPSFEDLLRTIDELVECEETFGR
procedure summary: Inhibition of a panel of kinases, in vitro HotSpot kinase assay: TEC
Type: biochemical
study conditions: D-compounds panel data; 1 μM ATP
pIC50: −log10 of the molar value.

Please review the following examples before continuing.
> print(dat)
                                   compound        result
1  C[C@@H]1[C@H](NC(=O)c2ccc(-c3ncccn3)cc2)CCCN1c1cnc(C(N)=O)c(Nc2cnn(C)c2)n1 [Example D-85]        ≥ 8.00
2  C[C@@H]1[C@H](NC(=O)c2ccc(C3CC3)cn2)CCCN1c1cnc(C(N)=O)c(Nc2cnn(C)c2)n1 [Example D-21]  7.00 to 8.00

Please report the recorded pIC50 for C[C@@H]1[C@H](NC(=O)c2ccc(C3(C)COC3)cc2)CCCN1c1cnc(C(N)=O)c(Nc2cnn(C)c2)n1 [Example D-228] .
≥ 8.00

Request: Cc1cc(Nc2nc(N3C[C@H](NC(=O)N(C)C)CC[C@@H]3C)cnc2C(N)=O)sn1 [Example D-74]
5.00 to 6.00

Request: C[C@@H]1[C@H](NC(=O)c2ccc(C(O)(C(F)(F)F)C(F)(F)F)cc2)CCCN1c1cnc(C(N)=O)c(Nc2cnn(C)c2)n1 [Example D-240]
7.00 to 8.00

###

Property: IC50; scope: individual compounds
study target: JAK3 (Homo sapiens, UniProt P52333)
Sequence (P52333 1-1124): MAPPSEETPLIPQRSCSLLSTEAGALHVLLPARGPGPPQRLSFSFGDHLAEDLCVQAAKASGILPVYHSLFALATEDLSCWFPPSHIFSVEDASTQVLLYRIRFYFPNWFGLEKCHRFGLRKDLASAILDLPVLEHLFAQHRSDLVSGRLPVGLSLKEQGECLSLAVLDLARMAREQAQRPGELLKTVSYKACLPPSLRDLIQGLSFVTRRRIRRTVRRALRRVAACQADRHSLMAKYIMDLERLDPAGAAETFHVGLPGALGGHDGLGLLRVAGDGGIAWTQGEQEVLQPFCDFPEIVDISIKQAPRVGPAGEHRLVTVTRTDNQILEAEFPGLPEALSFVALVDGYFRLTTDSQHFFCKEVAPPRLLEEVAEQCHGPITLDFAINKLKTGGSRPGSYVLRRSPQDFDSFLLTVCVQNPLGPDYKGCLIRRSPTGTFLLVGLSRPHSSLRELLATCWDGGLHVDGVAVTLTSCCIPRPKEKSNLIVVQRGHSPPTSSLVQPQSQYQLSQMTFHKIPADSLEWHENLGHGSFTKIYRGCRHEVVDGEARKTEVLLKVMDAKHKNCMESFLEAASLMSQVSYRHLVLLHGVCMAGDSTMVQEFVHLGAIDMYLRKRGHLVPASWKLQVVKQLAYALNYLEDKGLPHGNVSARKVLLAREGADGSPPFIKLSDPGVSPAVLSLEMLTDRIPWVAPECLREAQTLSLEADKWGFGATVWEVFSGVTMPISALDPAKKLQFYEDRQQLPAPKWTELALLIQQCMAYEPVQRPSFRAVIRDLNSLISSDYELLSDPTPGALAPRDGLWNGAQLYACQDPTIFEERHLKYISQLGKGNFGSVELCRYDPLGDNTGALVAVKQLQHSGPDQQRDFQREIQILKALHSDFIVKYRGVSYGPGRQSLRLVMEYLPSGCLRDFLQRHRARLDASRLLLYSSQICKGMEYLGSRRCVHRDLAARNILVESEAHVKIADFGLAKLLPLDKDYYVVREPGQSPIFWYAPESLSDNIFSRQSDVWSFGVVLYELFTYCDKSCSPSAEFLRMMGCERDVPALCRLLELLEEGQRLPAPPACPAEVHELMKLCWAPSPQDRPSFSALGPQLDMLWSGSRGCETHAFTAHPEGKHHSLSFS
procedure summary: Inhibition of a panel of kinases, in vitro HotSpot kinase assay: JAK3
Assay type: biochemical
study conditions: D-compounds panel data; 1 μM ATP; read-out: IC50 JAK3

IC50 of C[C@@H]1[C@H](NC(=O)c2ccc(C(O)C(F)(F)F)cc2)CCCN1c1cnc(C(N)=O)c(Nc2cnn(C)c2)n1 (single isomer, unassigned) [Example D-249] on JAK3 (Homo sapiens, UniProt P52333)?
1000 to 10000 nM

Request: C[C@@H]1[C@H](NC(=O)c2ccc(C3(C)COC3)cc2)CCCN1c1cnc(C(N)=O)c(Nc2cnn(C)c2)n1 [Example D-228]
1000 to 10000 nM

Request: C[C@@H]1[C@H](NC(=O)c2ccc(C(F)(F)F)nc2)CCCN1c1cnc(C(N)=O)c(Nc2cnn(C)c2)n1 [Example D-91]
100 to 1000 nM

Source of measurements: patent US20210070748A1
